- Protocol summary: in vivo
- Test context: male, CD-1, mouse, iv, 10 mg/kg, Vss
Reported Vd values are given for each entry in this list.
Don't forget the unit after the value.

For record O=c1[nH]c(-c2ccc(Cl)c(Cl)c2)c(-n2nnc3cc(F)c(F)cc32)c(=O)n1-c1cncc2ccccc12 [AVI-4673] the listed Vd is 4.75 L/kg

---

- Test system: HCoV Beta OC43
- Protocol summary: microbe, parasite or virus in culture
- Assay type: cell-based
- Test context: read-out: EC50
Test readout: pEC50
In simple prose, pEC50 is minus the logarithm base ten of a concentration in moles per litre.

For record O=c1nc(NO)ccn1[C@@H]1O[C@H](CO)[C@@H](O)[C@H]1O [EIDD-1931, reference compound] the listed pEC50 is 7.46

---

- Protocol summary: in vitro
- Test context: PAMPA, pH 7.4
Test readout: Papp (×10⁻⁶ cm/s)
Record the value in ×10⁻⁶ cm/s, omitting the unit from your answer.

For record C#CCn1c(C)c(-n2nnc3ccccc32)c(=O)n(-c2cncc3ccccc23)c1=O the listed Papp is 22.4

For record C#CCn1c(-c2cccc(Cl)c2)c(-n2nnc3ccccc32)c(=O)n(-c2cncc3ccccc23)c1=O the listed Papp is 31.8

For record O=c1cc(-c2cccc(Cl)c2)[nH]c(=O)n1-c1cncc2ccccc12 the listed Papp is 31.8

For record O=c1[nH]c(-c2ccc(Cl)c(Cl)c2)c(-n2nnc3cc(F)c(F)cc32)c(=O)n1-c1cncc2ccccc12 the listed Papp is 4.99

For record O=C1CCN(Cc2cccc(Cl)c2)C(=O)N1c1cncc2ccccc12 the listed Papp is 23.9

---

Entries below carry reported pIC50 on SARS-CoV-1 M^Pro (Severe acute respiratory syndrome coronavirus).
In simple prose, pIC50 is minus the logarithm base ten of a concentration in moles per litre.

Smi | Target under test | pIC50
C#CCn1c(C)c(-n2nnc3cc(F)c(F)cc32)c(=O)n(-c2cncc3ccccc23)c1=O | SARS-CoV-1 M^Pro (Severe acute respiratory syndrome coronavirus) | 7.02
C#CCn1c(-c2ccc(Cl)c(Cl)c2)c(-n2nnc3cc(F)c(F)cc32)c(=O)n(-c2cncc3ccccc23)c1=O | SARS-CoV-1 M^Pro (Severe acute respiratory syndrome coronavirus) | 7.18

For record C#CCn1c(C)c(-n2nnc3ccccc32)c(=O)n(-c2cncc3ccccc23)c1=O the listed pIC50 is 7.26

For record C#CCn1c(-c2cccc(Cl)c2)c(-n2nnc3ccccc32)c(=O)n(-c2cncc3ccccc23)c1=O the listed pIC50 is 6.92

---

Reported half-life values are given for each entry in this list.
- Protocol summary: in vitro
- Test context: mouse, microsomes, pH 7.4

Smi | half-life
C#CCn1c(-c2ccc(Cl)c(Cl)c2)c(-n2nnc3cc(F)c(F)cc32)c(=O)n(-c2cncc3ccccc23)c1=O | 1.6 h
C#CCn1c(-c2cccc(Cl)c2)c(-n2nnc3ccccc32)c(=O)n(-c2cncc3ccccc23)c1=O | > 2 h
O=c1[nH]c(-c2ccc(Cl)c(Cl)c2)c(-n2nnc3cc(F)c(F)cc32)c(=O)n1-c1cncc2ccccc12 | > 2 h
C#CCn1c(C)c(-n2nnc3ccccc32)c(=O)n(-c2cncc3ccccc23)c1=O | > 2 h

Please turn your attention to the following entry.
For record C#CCn1c(C)c(-n2nnc3cc(F)c(F)cc32)c(=O)n(-c2cncc3ccccc23)c1=O the listed half-life is > 2 h

---

- Test context: male, CD-1, mouse, in vivo
Reported Mouse F values are given for each entry in this list.
# print the numeric value only

For record C#CCn1c(C)c(-n2nnc3cc(F)c(F)cc32)c(=O)n(-c2cncc3ccccc23)c1=O [AVI-4773] the listed Mouse F is 110

For record C#CCn1c(C)c(-n2nnc3ccccc32)c(=O)n(-c2cncc3ccccc23)c1=O [AVI-4516] the listed Mouse F is 57

For record C#CCn1c(-c2ccc(Cl)c(Cl)c2)c(-n2nnc3cc(F)c(F)cc32)c(=O)n(-c2cncc3ccccc23)c1=O [AVI-4694] the listed Mouse F is 64

For record O=c1[nH]c(-c2ccc(Cl)c(Cl)c2)c(-n2nnc3cc(F)c(F)cc32)c(=O)n1-c1cncc2ccccc12 [AVI-4673] the listed Mouse F is 76

---

Reported AUC(0-inf) values are given for each entry in this list.
- Protocol summary: in vivo
- Test context: male, CD-1, mouse, po, 50 mg/kg, AUCinf
Record the value in ng·h/mL, omitting the unit from your answer.

For record C#CCn1c(C)c(-n2nnc3cc(F)c(F)cc32)c(=O)n(-c2cncc3ccccc23)c1=O the listed AUC(0-inf) is 272000

For record O=c1[nH]c(-c2ccc(Cl)c(Cl)c2)c(-n2nnc3cc(F)c(F)cc32)c(=O)n1-c1cncc2ccccc12 the listed AUC(0-inf) is 11500

For record C#CCn1c(-c2ccc(Cl)c(Cl)c2)c(-n2nnc3cc(F)c(F)cc32)c(=O)n(-c2cncc3ccccc23)c1=O the listed AUC(0-inf) is 56500

For record C#CCn1c(C)c(-n2nnc3ccccc32)c(=O)n(-c2cncc3ccccc23)c1=O the listed AUC(0-inf) is 69500

---

- Protocol summary: in vivo
- Test context: male, CD-1, mouse, iv, 10 mg/kg
Test readout: clearance (mL/min/kg)
Record the value in mL/min/kg, omitting the unit from your answer.

Smi | Quantity unit | Observed result
C#CCn1c(C)c(-n2nnc3ccccc32)c(=O)n(-c2cncc3ccccc23)c1=O | mL/min/kg | 29
C#CCn1c(C)c(-n2nnc3cc(F)c(F)cc32)c(=O)n(-c2cncc3ccccc23)c1=O | mL/min/kg | 9.57
O=c1[nH]c(-c2ccc(Cl)c(Cl)c2)c(-n2nnc3cc(F)c(F)cc32)c(=O)n1-c1cncc2ccccc12 | mL/min/kg | 51.7

Please turn your attention to the following entry.
For record C#CCn1c(-c2ccc(Cl)c(Cl)c2)c(-n2nnc3cc(F)c(F)cc32)c(=O)n(-c2cncc3ccccc23)c1=O the listed clearance is 9.37

---

Reported viability at 100 µM values are given for each entry in this list.
- Protocol summary: in vitro
- Test context: human
Record the value in %, omitting the unit from your answer.

Example results:
Smi | viability at 100 µM, %
O=C1CCN(Cc2cccc(F)c2)C(=O)N1c1cncc2ccccc12 | 100
O=c1cc(-c2cccc(Cl)c2)[nH]c(=O)n1-c1cncc2ccccc12 | 100
O=C1CCN(Cc2ccsc2)C(=O)N1Cc1ccc[nH]c1=O | 100
O=c1[nH]c(-c2cccc(Cl)c2)c(-n2nnc3ccccc32)c(=O)n1-c1cncc2ccccc12 | 92.3
O=C1CCN(Cc2cccc(Cl)c2)C(=O)N1c1cncc2ccccc12 | 100
O=C1CCN(Cc2cccs2)C(=O)N1Cc1ccc[nH]c1=O | 100
O=C1CCN(Cc2csc(Cl)c2)C(=O)N1Cc1ccc[nH]c1=O | 100
O=C1CCN(Cc2csc(Cl)c2)C(=O)N1c1cncc2ccccc12 | 95.7
O=c1[nH]c(-c2ccc(Cl)c(Cl)c2)c(-n2nnc3cc(F)c(F)cc32)c(=O)n1-c1cncc2ccccc12 | 94.4
C#CCn1c(C)c(-n2nnc3ccccc32)c(=O)n(-c2cncc3ccccc23)c1=O | 90.4

Please turn your attention to the following entry.
For record O=C1CCN(Cc2cc(Cl)cs2)C(=O)N1Cc1ccc[nH]c1=O the listed viability at 100 µM is 88.9

---

- Protocol summary: in vitro
- Test context: plasma, pH 7.4, PPB
Reported fraction unbound values are given for each entry in this list.
# print the numeric value only

Smi | Observed result
C#CCn1c(C)c(-n2nnc3cc(F)c(F)cc32)c(=O)n(-c2cncc3ccccc23)c1=O | 0.19

For record C#CCn1c(-c2ccc(Cl)c(Cl)c2)c(-n2nnc3cc(F)c(F)cc32)c(=O)n(-c2cncc3ccccc23)c1=O the listed fraction unbound is 0.003

For record C#CCn1c(C)c(-n2nnc3ccccc32)c(=O)n(-c2cncc3ccccc23)c1=O the listed fraction unbound is 0.37

For record O=c1[nH]c(-c2ccc(Cl)c(Cl)c2)c(-n2nnc3cc(F)c(F)cc32)c(=O)n1-c1cncc2ccccc12 the listed fraction unbound is 0.005

---

Reported MRT inf values are given for each entry in this list.
- Protocol summary: in vivo
- Test context: male, CD-1, mouse, iv, 10 mg/kg
Record the value in h, omitting the unit from your answer.

Smi | Observed result
O=c1[nH]c(-c2ccc(Cl)c(Cl)c2)c(-n2nnc3cc(F)c(F)cc32)c(=O)n1-c1cncc2ccccc12 | 1.53
C#CCn1c(-c2ccc(Cl)c(Cl)c2)c(-n2nnc3cc(F)c(F)cc32)c(=O)n(-c2cncc3ccccc23)c1=O | 2.6
C#CCn1c(C)c(-n2nnc3cc(F)c(F)cc32)c(=O)n(-c2cncc3ccccc23)c1=O | 2.06

Please turn your attention to the following entry.
For record C#CCn1c(C)c(-n2nnc3ccccc32)c(=O)n(-c2cncc3ccccc23)c1=O the listed MRT inf is 0.798

Values were extracted from paper PMC12017303.
